# System: CCRF-CEM leukemia
# assay remarks: NCI tumour cell line growth inhibition, 48 h
I'd be grateful if you could share measured TGI for these entries.
Give bare numbers, in µM.

A selection of reference data follows.
- compound: "CCN(CC)CCCC(C)Nc1c2ccc(Cl)cc2nc2ccc(O)cc12 (stereo unspecified)"
  TGI (µM): 28.9
- compound: "C=C(C[C@](O)(C(=O)/C=C/c1ccc(Cl)cc1)C(=O)OC)c1ccccc1"
  TGI (µM): 13

Now examine the next entry.
Query COc1cc(/C=N\N(C)C)cc(/C=N/N(C)C)c1O yields TGI of 72.4

----------
# System: DU-145 prostate
# assay remarks: NCI tumour cell line growth inhibition, 48 h
measured property: TGI

A selection of reference data follows.
- compound: "Cc1ccc(/C(Cl)=C/C=C(C#N)C#N)cc1"
  TGI: "23.9 µM"
- compound: "COC(=O)CC(c1cn(S(=O)(=O)c2ccc(C)cc2)c2ccccc12)C1C[C@@H](C(=O)OC)N(C(=O)OC(C)(C)C)C1=O (stereo partly specified)"
  TGI: "> 100 µM"
- compound: "COc1ccc(C[C@@H](CO)NC2=C(C#N)CCC2)cc1"
  TGI: "> 100 µM"

Each compound below has a reported value. Please supply its TGI.
1. COC(=O)C1=C(O)C(C(=O)OC)[C@]2(O)[C@H](C(=O)OC)[C@H]1C[C@@H](c1ccc(Cl)cc1)[C@H]2C(=O)OC (stereo partly specified)
2. c1ccc(-c2nc3ccccc3n3c(CN4CCCCC4)nnc23)cc1
3. COc1nc(N=P(c2ccccc2)(c2ccccc2)c2ccccc2)cc(=O)[nH]1

Data returned:
1: 30.4 µM; 2: > 100 µM; 3: > 100 µM
